Tested on: CP191
Assay: qHTS profiling for inhibitors of Plasmodium falciparum proliferation (AID 504749); also: nearly all actives have a fitted effect of over 60% in size
Settings: P. falciparum in erythrocytes, SYBR Green DNA, 72 h; series mostly up to 12.8 µM
Records with an inconclusive call do not appear. Activity calls are given as the source filed them. Calls follow the shape of the dose curve; as a rule, active = well fitted inhibition curve with a large enough effect; inconclusive = small, poorly fitted or top-dose-only effect; inactive = flat fitted curve, though single readings scatter.
Outcome codes: true = active, false = inactive

| molecule | studyTarget | qualitativeLabel |
| --- | --- | --- |
| CC(=O)N[C@@H]1C(O)OC(CO)C(O)C1O (some centres undefined) | CP191 | false |
| NC(=O)N[C@H]1NC(=O)NC1=O | CP191 | false |
| OCC1OC(n2cnc3c(=S)nc[nH]c32)C(O)C1O (centres undefined) | CP191 | false |
| C[C@@H]1C[C@H]2[C@@H]3C[C@H](F)C4=CC(=O)C=C[C@@]4(C)[C@]3(F)[C@H](O)C[C@]2(C)[C@@]1(O)C(=O)CO | CP191 | false |
| COc1ccc([C@@H]2CC(=O)c3c(O)cc(O[C@H]4O[C@@H](CO[C@H]5O[C@@H](C)[C@@H](O)[C@@H](O)[C@@H]5O)[C@@H](O)[C@@H](O)[C@@H]4O)cc3O2)cc1O | CP191 | false |
| CN[C@H]1[C@@H](O)[C@@H](NC)[C@@H]2O[C@@]3(O)C(=O)C[C@@H](C)O[C@H]3O[C@H]2[C@H]1O | CP191 | false |
| COc1ccccc1OC[C@H](O)CO | CP191 | false |
| COC1OC(CO)C(OC2OC(C(=O)O)C(OC3OC(COS(=O)(=O)O)C(OC4OC(C(=O)O)C(OC5OC(CO)C(OC6OC(C(=O)O)C(OC7OC(COS(=O)(=O)O)C(OC8OC(C(=O)O)=C[C@H](O)C8OS(=O)(=O)O)C(O)C7NC(C)=O)[C@@H](O)C6O)C(O)C5NC(C)=O)[C@@H](O)C4O)C(O)C3NC(C)=O)[C@@H](O)C2O)C(O)C1NC(C)=O (some centres undefined) | CP191 | true |
| Cc1cccc(C)c1NC(=O)[C@H](C)N | CP191 | false |

These measurements were taken from PubChem BioAssay (NCATS).
